Listing of entries alongside the reported solubility at 24 h.
Assay Text: physchem
Test Conditions: pH 6.8, aqueous buffer, kinetic from dmso stock, Solubility (pH 6.8)

{"columns": ["Record Smiles", "solubility at 24 h [µg/mL]"],
 "data": [
  ["Cc1cc(COc2c(C)cccc2-c2csc(N3CC[C@@]4(C(=O)O)C[C@H]4C3)n2)cc2c1CN(C1CCOCC1)CC2", 52],
  ["CCO[C@@H]1CN(c2nc(-c3cccc(C)c3OCc3cc4c(c(OC)c3)CN(C3CCOCC3)CC4)cs2)CC[C@@H]1C(=O)O", 107],
  ["COCc1cc(COc2c(C)cccc2-c2cccc(N3C[C@@H]4C[C@]4(C(=O)O)[C@H]3COC)n2)cc2c1CN(C1CCOCC1)CC2", 82.8],
  ["COC[C@H]1N(c2cccc(-c3cccc(C)c3OCc3cnc4c(c3)CCN(C3CCOCC3)CC4)n2)C[C@@H]2C[C@@]21C(=O)O", 139],
  ["Cc1cc(COc2c(C)cccc2-c2csc(N3CC[C@@]4(C(=O)O)C[C@H]4C3)n2)c(C)c2c1CN(C1CCOCC1)CC2", 38],
  ["CO[C@@H]1CN(c2cccc(-c3cc(C)ccc3OCc3ccc4c(c3C)CCN(C3CCOCC3)C4)n2)CC[C@@H]1C(=O)O", 74]
]}
